tested on: German cockroaches (Blattella germanica); assay: Spray knockdown test on German cockroaches (Test Examples 1, 2); assay type: in vivo; details: 5 min, active ingredient 2.0% w/v oil solution, 1.5 ml sprayed, counted after 5 minutes, read-out: knockdown rate
Entries and their pest or weed control at 2 %

molecule	experimental.target	pest or weed control at 2 %
CCCCCC/C=C/C(=O)NCC1CCCCO1 (stereo not shown)	German cockroaches (Blattella germanica)	≥ 80%
CCCCCC/C=C/C(=O)NCC1(CC)COCOC1	German cockroaches (Blattella germanica)	≥ 80%
CCCCCC/C=C(\F)C(=O)NCC1CCOC1 (stereo not shown)	German cockroaches (Blattella germanica)	≥ 80%
O=C(/C=C/CCCCCl)NCC1CCOCC1	German cockroaches (Blattella germanica)	≥ 80%
